- protocol.notes: Serum pharmacokinetics of AEE788 and its metabolite AQM674
- test.context: human, serum, oral, 200 mg/day
reported.metric: AUC(0-t)

>>> print(df.to_string())
                                   molecule  reported_metric  result_value
0  CCN1CCN(Cc2ccc(-c3cc4c(N[C@H](C)c5ccccc5)ncnc4[nH]3)cc2)CC1 [AEE788]         AUC(0-t)   189 ng·h/mL

###

- protocol.notes: Serum pharmacokinetics of AEE788 and its metabolite AQM674
- test.context: human, serum, oral, 450 mg/day
reported.metric: Tmax (h)

>>> df
                                   compound  result_value
0  CCN1CCN(Cc2ccc(-c3cc4c(N[C@H](C)c5ccccc5)ncnc4[nH]3)cc2)CC1 [AEE788]            11

###

- protocol.notes: Serum pharmacokinetics of AEE788 and its metabolite AQM674
- test.context: human, serum, oral
reported.metric: Tmax (h)

>>> print(df.to_string())
                         structure_notation  result_value
0  CCN1CCN(Cc2ccc(-c3cc4c(N[C@H](C)c5ccccc5)ncnc4[nH]3)cc2)CC1             5

###

- protocol.notes: Serum pharmacokinetics of AEE788 and its metabolite AQM674
- test.context: human, serum, oral, 550 mg/day
reported.metric: AUC(0-t) (ng·h/mL)

>>> print(df.to_string())
                                   molecule  units_of_measure  result_value
0  CCN1CCN(Cc2ccc(-c3cc4c(N[C@H](C)c5ccccc5)ncnc4[nH]3)cc2)CC1 [AEE788]           ng·h/mL          4300

###

- protocol.notes: Serum pharmacokinetics of AEE788 and its metabolite AQM674
- test.context: human, serum, oral, 50 mg/day
reported.metric: Tmax (h)

In [3]: df
Out[3]:
                                   compound  units_of_measure  result_value
0  CCN1CCN(Cc2ccc(-c3cc4c(N[C@H](C)c5ccccc5)ncnc4[nH]3)cc2)CC1 [AEE788]                 h             3

###

- protocol.notes: Serum pharmacokinetics of AEE788 and its metabolite AQM674
- test.context: human, serum, oral, 550 mg/day
reported.metric: Cmax

>>> print(df.to_string())
                         structure_notation  reported_metric  result_value
0  CCN1CCN(Cc2ccc(-c3cc4c(N[C@H](C)c5ccccc5)ncnc4[nH]3)cc2)CC1             Cmax     234 ng/mL

###

- protocol.notes: Serum pharmacokinetics of AEE788 and its metabolite AQM674
- test.context: human, serum, oral, 50 mg/day
reported.metric: AUC(0-t) (ng·h/mL)

                                   compound  reported_metric  units_of_measure  result_value
0  CCN1CCN(Cc2ccc(-c3cc4c(N[C@H](C)c5ccccc5)ncnc4[nH]3)cc2)CC1 [AEE788]         AUC(0-t)           ng·h/mL            82

###

- protocol.notes: Serum pharmacokinetics of AEE788 and its metabolite AQM674
- test.context: human, serum, oral, 450 mg/day
reported.metric: AUC(0-t) (ng·h/mL)

In [3]: df
Out[3]:
                         structure_notation  units_of_measure  result_value
0  CCN1CCN(Cc2ccc(-c3cc4c(N[C@H](C)c5ccccc5)ncnc4[nH]3)cc2)CC1           ng·h/mL          3000
